# system.name: NK1 receptor (Homo sapiens, UniProt P25103)
# Sequence (P25103 whole entry, species assumed): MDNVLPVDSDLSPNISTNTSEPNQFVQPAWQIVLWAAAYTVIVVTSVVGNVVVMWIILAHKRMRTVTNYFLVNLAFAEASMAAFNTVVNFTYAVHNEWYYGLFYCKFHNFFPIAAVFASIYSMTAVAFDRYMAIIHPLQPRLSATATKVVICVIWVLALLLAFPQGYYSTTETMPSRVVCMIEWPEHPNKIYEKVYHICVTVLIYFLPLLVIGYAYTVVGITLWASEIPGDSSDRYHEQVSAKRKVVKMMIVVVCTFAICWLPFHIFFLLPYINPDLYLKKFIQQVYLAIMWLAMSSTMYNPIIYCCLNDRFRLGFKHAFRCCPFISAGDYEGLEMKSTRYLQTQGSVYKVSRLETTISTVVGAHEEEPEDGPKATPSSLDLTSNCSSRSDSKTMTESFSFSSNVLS
# method: NK1 receptor binding (inhibition of Substance P binding, Ki by Chang-Prusoff equation)
Please go through the items and note down their pKi.
Note on units: pKi is unitless, being -log10 of a concentration expressed in mol/L.

Field request: pKi | item: C[C@@H](OC[C@@]1(c2ccccc2)CC[C@]2(CO)CN1CC(=O)N2)c1cc(C(F)(F)F)cc(C(F)(F)F)c1 [Example 3a]
9.82

Try the compound C[C@@H](OC[C@@]1(c2ccccc2)CC[C@@H]2CN1CCN2)c1cc(C(F)(F)F)cc(C(F)(F)F)c1 [Example 4]
9.96

Try the compound C[C@@H](OC[C@@]1(c2ccccc2)CC[C@]2(CN3CCCCC3=O)CN1CC(=O)N2)c1cc(C(F)(F)F)cc(C(F)(F)F)c1 [Example 30]
9.96

Try the compound C[C@@H](OC[C@@]1(c2ccccc2)CC[C@]2(CC#N)CN1CC(=O)N2)c1cc(C(F)(F)F)cc(C(F)(F)F)c1 [Example 8]
9.92

Try the compound C[C@@H](OC[C@@]1(c2ccccc2)CC[C@]2(Cn3cnnn3)CN1CC(=O)N2)c1cc(C(F)(F)F)cc(C(F)(F)F)c1 [Example 20]
9.82

Try the compound C[C@@H](OC[C@@]1(c2ccccc2)CC[C@@]23COCCN2C(=O)CN1C3)c1cc(C(F)(F)F)cc(C(F)(F)F)c1 [Example 51]
9.92

The measured values listed here are drawn from patent US7354922B2.
